Data provenance: ChEMBL document CHEMBL1201862

# Tested on: HT-29
# test method notes: NCI tumour cell line growth inhibition, 48 h
Activity calls are given as the source filed them. Rule as the data show it: active = GI50 up to about 1.1 µM and inactive = higher.
Outcomes: active, inactive

• CC(C)(C)OC(=O)N/C(C=O)=C\C1CCCCC1 = inactive
• COc1cc2c(cc1OC)-c1[nH]c3ccc(C#N)cc3c1CC(=O)N2 = inactive
• CCOC(=O)C(COS(C)(=O)=O)(COS(C)(=O)=O)C(=O)OCC = inactive
• O=c1c2cc([N+](=O)[O-])ccc2n2n1CCCCC2 = inactive
• CC(C)(C)c1cc(C(=O)/C=C/c2c(Cl)cccc2Cl)cc(C(C)(C)C)c1O = inactive
• Cc1ccc(-c2nc(N/N=C/C=C/c3ccccc3)c3ccccc3n2)cc1 = inactive
• CNc1cc(Cl)ccc1C(=O)N1CCC[C@H]1CO = inactive
• NC(=O)c1cccc([C@@H]2O[C@H](CO)[C@@H](O)[C@H]2O)c1 = inactive
• Cc1n[nH]c(=O)n1-c1cccnc1 = inactive
• C=C1C(O)C[C@H](OC(C)=O)[C@]2(C)C1C(OC(C)=O)[C@]1(C(C)(C)O)CC(O)C(C)=C1[C@@H](OC(=O)c1ccccc1)C2OC(C)=O (some centres not stated) = inactive
• COc1ccc(N2C(N)=C(C#N)C(C#N)(C#N)C2c2cccc([N+](=O)[O-])c2)cc1 (configuration not stated) = inactive
• N#Cc1c(-c2ccccc2)nc(-c2ccccc2)sc1=S = inactive
• N[C@H](Cc1ccc2oc3cc(=O)c4ccccc4c-3nc2c1)C(=O)O = inactive
• O=C1NCC2(CCN(CCCC3(c4ccc(F)cc4)OCCO3)CC2)N1c1ccccc1 = inactive
• CCC(=S)N(C)O = active
• Cc1cc(-c2ccc(C(=O)C(Cl)(Cl)Cl)[nH]2)on1 = inactive
• COc1ccc(Cc2c3cc(OC)c(OC)cc3cc[n+]2C)cc1 = inactive
• CN1CCCCCC(=N\O)/C(=N/O)CCCCC1 = inactive
• CSc1ccc2c(cc1=O)[C@@H](NC(C)=O)CCc1cc(O)c(O)c(O)c1-2 = inactive
• COc1ccc2ccccc2c1CN1CCOCCOCCN(Cc2c(OC)ccc3ccccc23)CCOCCOCC1 = inactive
• CC[C@@]1(O)C(=O)OCc2c1cc1n(c2=O)Cc2c-1nc1ccccc1c2/C=N\NC(=O)C(N)Cc1c[nH]c2ccccc12 (some centres not stated) = inactive
• O=C1C(c2c(O)[nH]c3ccc(Br)cc23)=Nc2ccccc21 = inactive

###

# Tested on: UO-31
# test method notes: NCI tumour cell line growth inhibition, 48 h
Active and inactive are the calls of the source. Cut-off read from the data, not from the text of the source: active = GI50 up to about 1.1 µM and inactive = higher.
experimental readout: GI50

• CO/N=C(\C(=O)Nc1cncs1)c1csc(N)n1 = > 10 µM (inactive)
• N#CC(C#N)=C1CCCCc2ccc([N+](=O)[O-])cc21 = 92.9 µM (inactive)
• O=c1[nH]cnc2c1sc1nc3ccccc3n12 = 42.3 µM (inactive)
• COc1cc2c(cc1O)C1C(O)C(O)C=C3CCN(C2)C31 (stereo unspecified) = 2.77 µM (inactive)
• Cc1ccc(-n2c3nc(=O)n(C)c(=O)c-3nc3ccccc32)c(C)c1 = 24.3 µM (inactive)
• COc1ccc(C(=O)C#Cc2cnc(OC)nc2OC)cc1 = 1.29 µM (inactive)

###

# Tested on: SNB-19
# test method notes: NCI tumour cell line growth inhibition, 48 h
The source made the active and inactive calls. Cut-off read from the data, not from the text of the source: active = GI50 up to about 1.1 µM and inactive = higher.
Outcomes: T (active), F (inactive)

• CCN(CC)c1nc(NC2CCCCC2)c2nc(N(CC)CC)nc(NC3CCCCC3)c2n1 = F
• N#Cc1c(-c2ccccc2)nc(-c2ccccc2)sc1=S = F
• CO/N=C(\C(=O)Nc1cncs1)c1csc(N)n1 = F
• Cc1c(/C=N/N(C)C)oc2c1cc(O)c1ncccc12 = F
• Cc1cn(C2C=CC(COP(=O)(OCc3ccc([N+](=O)[O-])o3)N(C)CCCCCl)O2)c(=O)[nH]c1=O (stereo not given) = F
• CCOC(=O)CC1c2ccc(O)cc2OC(=O)C1c1ccc(N)cc1 (stereo not given) = F
• NS(=O)(=O)c1ccc(CNc2nc(-c3cccs3)nc3ccc(I)cc23)cc1 = F
• Cc1cc2c(cn1)C(=O)OCC2 = F
• Nc1nncc2[nH]cnc12 = F
• CC(=O)NC1C(OCc2ccccc2)OC(CO)C(O)C1OC(C)C(=O)N[C@@H](C)C(=O)N[C@H](CCC(=O)NCCNCCNc1c2ccccc2nc2cccc([N+](=O)[O-])c12)C(N)=O (stereo not given in full) = T

###

# Test system: NCI-H460
# test method notes: NCI tumour cell line growth inhibition, 48 h
Calls of active or inactive are those of the source. No stated cut-off is given here; in the data, active = GI50 up to about 1.1 µM and inactive = higher.
experimental readout: GI50

- COc1ccc2nc3n(c2c1)C(c1c(Cl)cccc1Cl)SC3 (configuration not stated): > 100 µM (inactive)
- Clc1ccc(C(n2cc(Br)cn2)n2cc(Br)cn2)cc1: 16.1 µM (inactive)
- CC(=O)c1ccc(/N=N/N2CCCC2)cc1: > 100 µM (inactive)
- Cn1nc(S(N)(=O)=O)s/c1=N/C(N)=S: > 100 µM (inactive)
- Clc1ccc2oc(CCC3CCCCC3)nc2c1: 24.9 µM (inactive)
- CC(C)=CC(=O)Cc1nc2ccccc2[nH]c1=O: > 100 µM (inactive)
- Cc1ccc(Cc2n[nH]c(=O)n2N2C(=O)c3ccccc3C2=O)cc1: > 100 µM (inactive)
- CC(C)[Si](OC1=CCC[C@H]2NC(=O)[C@@H](Cc3ccccc3)[C@@]12C)(C(C)C)C(C)C: 3.52 µM (inactive)
- CC1(C(=O)O)CCCC1C(=O)O (configuration not stated): > 100 µM (inactive)
- NCCC1([N+](=O)[O-])CCNCC1: > 100 µM (inactive)
- N#CC(C#N)=C1CCCCc2ccc([N+](=O)[O-])cc21: > 100 µM (inactive)
- COc1cc(/C=C2\C(=O)N(c3ccccc3Cl)C(c3ccccc3)S2(=O)=O)cc(OC)c1OC (configuration not stated): 52.2 µM (inactive)

###

# System: SW-620
# test method notes: NCI tumour cell line growth inhibition, 48 h
Activity calls are given as the source filed them. No stated cut-off is given here; in the data, active = GI50 up to about 1.1 µM and inactive = higher.
experimental readout: GI50

* COc1ccc(C(SCCO)(c2ccccc2)c2ccccc2)cc1 | 20.6 µM (inactive)
* C=C1C(O)C[C@H](OC(C)=O)[C@]2(C)C1C(OC(C)=O)[C@]1(C(C)(C)O)CC(O)C(C)=C1[C@@H](OC(=O)c1ccccc1)C2OC(C)=O (stereo not given in full) | > 10 µM (inactive)
* N#Cc1c(-c2ccccc2)nc(-c2ccccc2)sc1=S | > 100 µM (inactive)
* C=CC(=O)NCCC(=O)OCn1cc(F)c(=O)[nH]c1=O | 17.2 µM (inactive)
* CCOC(=O)C(COS(C)(=O)=O)(COS(C)(=O)=O)C(=O)OCC | > 100 µM (inactive)

###

# Test system: OVCAR-8
# test method notes: NCI tumour cell line growth inhibition, 48 h
The source made the active and inactive calls. Cut-off read from the data, not from the text of the source: active = GI50 up to about 1.1 µM and inactive = higher.
Outcomes: active, inactive

• Cc1ccc(Cc2nnc(S)[nH]2)cc1 = inactive
• CC(C)OC(=O)[C@H]1ON2O[C@H](O[C@@H]3CCCC[C@H]3c3ccccc3)C([Si](C)(C)c3ccccc3)[C@H]3OC(=O)[C@@H]1C32 (stereo partly specified) = inactive
• Cc1cc2c(O)c(c1)CN(Cc1ccccc1)Cc1cc(C)cc(c1O)CN(Cc1ccccc1)Cc1cc(C)cc(c1O)CN(Cc1ccccc1)C2 = inactive
• CNC(=O)CCNC(=O)CCC(=O)N(C)C = inactive
• O=C(CCCn1ccnc1[N+](=O)[O-])NCCn1cnc([N+](=O)[O-])n1 = inactive
• O=[N+]([O-])/C(Cl)=C(\Sc1ccccc1)C(Cl)=C(Cl)Cl = active
• NCCC1([N+](=O)[O-])CCNCC1 = inactive
• Fc1cc(F)c(F)c(S)c1F = inactive
• Clc1ccc(C(n2cc(Br)cn2)n2cc(Br)cn2)cc1 = inactive
• COc1ccc(C(=O)C#Cc2cnc(OC)nc2OC)cc1 = inactive
• C=C(N=[N+]=[N-])c1cn(C2CC(O)C(CO)O2)c(=O)[nH]c1=O (stereo unspecified) = inactive
• CCCCn1cnnc1NS(=O)(=O)c1cc(C)c(Cl)cc1SCC(=O)O = inactive
• Cc1cc(Cl)ccc1NC(=O)C1C(=O)N(c2ccc(Cl)cc2C)C(=O)/C1=N\N (stereo unspecified) = inactive
• C=C[C@]1(C)CC[C@]2(C)C(CC[C@@]3(C)C2C[C@H](O)[C@H](O)[C@@]3(C)O)C1 (stereo partly specified) = inactive
• CCc1ccccc1NC(=O)CC1NC(=O)CS1 (stereo unspecified) = inactive
• Nc1ncnc2c1ncn2C1CCC(CO)O1 (stereo unspecified) = inactive
• OC1(c2ccc(Cl)cc2)c2c(c3ccccc3c3ccccc23)C2=NCCN21 (stereo unspecified) = inactive
• COc1ccc2c(c1)[n+]([O-])c(/C(C)=N/NC(=O)CC#N)c[n+]2[O-] = inactive
• COc1cc2c(cc1OC)-c1[nH]c3ccc(C#N)cc3c1CC(=O)N2 = inactive
• C=C(C)C(CC=C(C)C)CC12CC(CC=C(C)C)C(C)(C)C(CC=C(C)C)(C(=O)C(Cc3ccc(O)c(O)c3)=C1O)C2=O (stereo unspecified) = inactive
• Cc1ccc(C(=O)/C=C(\O)C(=O)NC23CC4CC(CC(C4)C2)C3)cc1 = inactive
